Listed below: pKi values for each entry.
# experimental system: dopamine D2 receptor (Rattus norvegicus, UniProt P61169)
# Construct: the receptor fraction prepared from the corpus striatum was molten and suspended; from tissue; host or cells: corpus striatum of SD rats (membrane fraction)
# Sequence (P61169 whole entry): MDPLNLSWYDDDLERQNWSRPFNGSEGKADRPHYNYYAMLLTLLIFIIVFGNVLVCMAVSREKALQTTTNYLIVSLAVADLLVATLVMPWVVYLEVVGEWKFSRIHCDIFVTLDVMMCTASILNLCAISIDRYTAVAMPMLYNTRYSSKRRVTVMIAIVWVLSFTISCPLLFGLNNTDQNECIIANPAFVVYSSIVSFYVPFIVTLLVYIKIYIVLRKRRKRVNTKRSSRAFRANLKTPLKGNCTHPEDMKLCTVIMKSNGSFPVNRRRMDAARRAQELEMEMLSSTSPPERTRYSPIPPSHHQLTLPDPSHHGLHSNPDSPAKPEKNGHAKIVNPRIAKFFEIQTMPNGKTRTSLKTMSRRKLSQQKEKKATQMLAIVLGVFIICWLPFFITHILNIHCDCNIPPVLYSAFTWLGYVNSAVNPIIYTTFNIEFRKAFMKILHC
# measurement description: dopamine D2 receptor binding test ([3H] Spiperone Binding Test)
# Parameters: species or system SD rats
# experimental setup: 1 nM [3H] Spiperone, rat corpus striatum, room temperature, 60 minutes; read-out: Ki value, dopamine D2 receptor
Entry type: numeric. Quantity: pKi, the -log10 of concentration in molar units.

CCCc1cc(-c2ccccc2)cc(N2CCN(CC)CC2)c1OC: 8.06
CCC(F)c1cc(N2CCN(CC)CC2)cc(-c2ccccc2C)c1Cl (centres unmarked) [Example 27]: 7.95
CCS(=O)(=O)c1cc(N2CCN(CCc3ccncc3)CC2)cc(-c2ccc(F)cc2)c1OC: 7.71

*Q* Endpoint output: pKi of CCC(F)c1cc(N2CCN(CC)CC2)cc(-c2ccc(F)cc2F)c1Cl (centres unmarked) . Value?
*A* 9.09

*Q* Please give the result for `COc1c(-c2ccccc2)cc(N2CCN(CCO)CC2)cc1-c1ccccc1` too.
*A* 6.42

*Q* Let us now turn to CCCC(F)c1cc(N2CCN(C)CC2)cc(-c2ccccc2C)c1Cl (centres unmarked)
*A* 8.17

* * *

# experimental system: dopamine D2 receptor (Rattus norvegicus, UniProt P61169)
# Construct: the receptor fraction prepared from the corpus striatum was molten and suspended; from tissue; host or cells: corpus striatum of SD rats (membrane fraction)
# measurement description: dopamine D2 receptor binding test ([3H] Spiperone Binding Test)
# Parameters: species or system SD rats
# experimental setup: 1 nM [3H] Spiperone, rat corpus striatum, room temperature, 60 minutes; read-out: Ki value, dopamine D2 receptor
# Protocol: The compounds of the present invention were subjected to each of serotonin S2 receptor binding test, dopamine D2 receptor binding test and adrenergic α1 receptor binding test. The following reagents were used in this test. These reagents and samples were each dissolved in 10% ethanol before use. […] Each IC50 value was calculated by the probit method and each Ki value was determined by the following formula: [formula] […]
measured property: log10(Ki) (log10 of the value in nM)
A difference of one corresponds to tenfold Ki; all values are log10 with Ki in nM.

Worked set:
CCCc1cc(N2CCN(CC)CC2)cc(-c2ccc(OC)cc2)c1OC [Example 73]: 2.76
CCCS(=O)(=O)Nc1cc(N2CCN(CC)CC2)cc(-c2ccccc2CC)c1Cl [Example 194]: -0.08
CCC(F)c1cc(N2CCN(CC)CC2)cc(-c2ccccc2C)c1Cl (stereo not drawn) [Example 131]: 0.52
CCN1CCN(c2cc(-c3ccccc3C)c(Cl)c(S(=O)(=O)N(C)C)c2)CC1 [Example 154]: 0.41

*Q* Need log10(Ki) of CC[C@H](F)c1cc(N2CCN(C)CC2)cc(-c2ccccc2C)c1Cl [Example 221] , thanks.
*A* 0.54

*Q* And CCN1CCN(c2cc(-c3ccccc3)c(OC)c(S(=O)(=O)N(C)C)c2)CC1 [Example 134] ?
*A* 1.78

*Q* Continue with CC[C@H](F)c1cc(N2CCN(CCO)CC2)cc(-c2ccc(F)cc2C)c1Cl [Example 222]
*A* 0.81

*Q* Param item: CCCS(=O)(=O)Nc1cc(N2CCN(CC)CC2)cc(-c2ccc(OC)cc2)c1Cl [Example 187]
*A* -0.27

* * *

# experimental system: dopamine D2 receptor (Rattus norvegicus, UniProt P61169)
# Construct: the receptor fraction prepared from the corpus striatum was molten and suspended; from tissue; host or cells: corpus striatum of SD rats (membrane fraction)
# measurement description: dopamine D2 receptor binding test ([3H] Spiperone Binding Test)
# Design: species or system SD rats
# experimental setup: 1 nM [3H] Spiperone, rat corpus striatum, room temperature, 60 minutes; read-out: Ki value, dopamine D2 receptor
measured property: Ki (nM)
Provide the reading as a plain figure in nM.

*Q* Please report the recorded Ki for CCN1CCN(c2cc(-c3ccccc3)c(OC)c(C(F)Cc3ccccc3)c2)CC1 (stereo not drawn) .
*A* 1.33

*Q* What about `CCN1CCN(c2cc(-c3ccccc3)c(OC)c(C3OCCCO3)c2)CC1` ?
*A* 429

*Q* Entry to check: CCN1CCN(c2cc(-c3ccccc3)c(OC)c(C(C)CO)c2)CC1 (stereo not drawn)
*A* 135

*Q* Repeat with `CCCc1cc(N2CCN(CC)CC2)cc(-c2ccc(F)cc2)c1OC`
*A* 6.6

*Q* Same thing, different compound: `CCOCc1cc(N2CCN(CC)CC2)cc(-c2ccccc2C)c1Cl`
*A* 19.2

*Q* Could you do the same for `CCN1CCN(c2cc(CCO)c(OC)c(-c3ccccc3)c2)CC1` , please?
*A* 18.3

* * *

# experimental system: dopamine D2 receptor (Rattus norvegicus)
# Construct: the receptor fraction prepared from the corpus striatum was molten and suspended; from tissue; host or cells: corpus striatum of SD rats (membrane fraction)
# measurement description: dopamine D2 receptor binding test ([3H] Spiperone Binding Test)
# Design: species or system SD rats
# experimental setup: 1 nM [3H] Spiperone, rat corpus striatum, room temperature, 60 minutes; read-out: Ki value, dopamine D2 receptor
Ki strictly under 4 nM means TRUE; at 4 nM or over means FALSE.

Completed entries (count: 5):
CCN1CCN(c2cc(NS(=O)(=O)c3ccc(F)cc3)c(Cl)c(-c3ccccc3C)c2)CC1: TRUE
CCN1CCN(c2cc(-c3ccccc3)c(OC)c(C(F)(F)CC)c2)CC1: TRUE
CCC(F)c1cc(N2CCN(CC)CC2)cc(-c2ccccc2Cl)c1Cl (centres unmarked): TRUE
CCN1CCN(c2ccc(O)c(-c3ccccc3)c2)CC1: FALSE
CCN1CCN(c2cc(-c3ccccc3)c(OC)c(S(=O)(=O)CCCOc3ccc(F)cc3)c2)CC1: FALSE

*Q* Bench note: check whether `CCCCS(=O)(=O)Nc1cc(N2CCN(CC)CC2)cc(-c2ccccc2Cl)c1Cl` shows Ki below 4 nM
*A* TRUE

*Q* Similarly, `CC[C@H](F)c1cc(N2CCN(CC)CC2)cc(-c2ccc(F)cc2C)c1Cl` ?
*A* FALSE

*Q* Field entry: `CCN1CCN(c2cc(-c3ccccc3)c(OC)c(N(C)S(=O)(=O)CC)c2)CC1`
*A* FALSE

* * *

# experimental system: adrenergic α1 receptor
# measurement description: adrenergic α1 receptor binding test ([3H] Prazosin Binding Test)
# Set-up: species or system SD rats
# experimental setup: 1 nM [3H] Prazosin, rat cortex, room temperature, 60 minutes
measured property: Ki

CCN1CCN(c2cc(-c3ccccc3)c(OC)c(C(C)(C)F)c2)CC1: > 1000 nM

*Q* I have this molecule here, `CCCc1cc(N2CCN(CC)CC2)cc(-c2ccc(F)cc2)c1OC` , and I need its recorded Ki.
*A* 79 nM

*Q* One more molecule: `CCN1CCN(c2cc(-c3ccccc3)c(OC)c(-c3ccccn3)c2)CC1`
*A* > 1000 nM

*Q* Query CCN1CCN(c2cc(-c3ccccc3)c(OC)c(C3CCCO3)c2)CC1 (stereo not drawn) next
*A* 279 nM

*Q* Here is the next molecule: `CCS(=O)(=O)c1cc(N2CCN(CCc3ccncc3)CC2)cc(-c2ccc(F)cc2)c1OC`
*A* 12.9 nM

*Q* Again, but for `CCN1CCN(c2cc(C(=O)Cc3ccncc3)c(OC)c(-c3ccccc3)c2)CC1`
*A* > 1000 nM

*Q* Entry to check: C=CCCC(F)c1cc(N2CCN(CC)CC2)cc(-c2ccccc2)c1OC (stereo not drawn)
*A* > 1000 nM

*Q* Now try `CCCS(=O)(=O)c1cc(N2CCN(CC)CC2)cc(-c2ccccc2)c1OC` .
*A* > 1000 nM

*Q* Queued: `CCCc1cc(N2CCN(CCF)CC2)cc(-c2ccc(F)cc2)c1OC`
*A* 270 nM

* * *

# experimental system: dopamine D2 receptor (Rattus norvegicus)
# Construct: the receptor fraction prepared from the corpus striatum was molten and suspended; from tissue; host or cells: corpus striatum of SD rats (membrane fraction)
# measurement description: dopamine D2 receptor binding test ([3H] Spiperone Binding Test)
# Design: species or system SD rats
# experimental setup: 1 nM [3H] Spiperone, rat corpus striatum, room temperature, 60 minutes; read-out: Ki value, dopamine D2 receptor
Catalogue of Ki values
A number alone suffices; assume nM.

The examples below pair each entry with its known result.
C=CCCC(F)c1cc(N2CCN(CC)CC2)cc(-c2ccccc2C)c1Cl (stereo not drawn) [Example 160]: 13.6
CCN1CCN(c2cc(C(=O)Cc3ccccc3)c(OC)c(-c3ccccc3)c2)CC1 [Example 92]: 2.71
CCCS(=O)(=O)Nc1cc(N2CCN(CC)CC2)cc(-c2ccccc2C#N)c1Cl [Example 197]: 1.4
CCC(Cl)c1cc(N2CCN(CC)CC2)cc(-c2ccccc2Cl)c1Cl (stereo not drawn) [Example 205]: 2.83
CN1CCN(c2cc(NS(=O)(=O)Cc3ccccc3)c(Cl)c(-c3ccccc3Cl)c2)CC1 [Example 179]: 6.08

*Q* Could you share which Ki value was measured for CCN1CCN(c2cc(-c3ccccc3)c(OC)c(C(F)Cc3ccccn3)c2)CC1 (stereo not drawn) [Example 99] ?
*A* 2.93

*Q* Next: CCN1CCN(c2cc(C(=O)Cc3ccncc3)c(OC)c(-c3ccccc3)c2)CC1 [Example 103]
*A* 101

*Q* Repeat with CCN1CCN(c2cc(COCc3ccncc3)c(Cl)c(-c3ccccc3C)c2)CC1 [Example 169]
*A* 41.8

Reference source: patent US6281214A
